Exercise: state measured Inhibition of binding of PDBu to its receptor for each of the compounds provided.
Tested on: PDBu receptor (phorboid receptor) of murine brain membranous fraction (BMF)
method-summary: PDBu binding inhibiting activity (PBIA): inhibition of 3H-PDBu binding to murine brain membranous fraction
Design: species or system murine (mouse, NFS strain)
conditions: concentration 0.4 (unit not given)

Q. Form entry - test system: PDBu receptor (phorboid receptor) of murine brain membranous fraction (BMF); read-out: Inhibition of binding of PDBu to its receptor; compound: CCCCCCCCCCCC(=O)OCC(COC(=O)CCCCCCCCCCC)OC(=O)CCCCCCCCCCC [Trilaurin, reference compound]
A. 11%

Q. Form entry - test system: PDBu receptor (phorboid receptor) of murine brain membranous fraction (BMF); read-out: Inhibition of binding of PDBu to its receptor; compound: CCCCCCCCCCCCCCCC(=O)OCC(COC(=O)CCCCCCCCCCCCCCC)OC(=O)CCCCCCCCCCCCCCC [Tripalmitin, reference compound]
A. -11%

Q. Form entry - test system: PDBu receptor (phorboid receptor) of murine brain membranous fraction (BMF); read-out: Inhibition of binding of PDBu to its receptor; compound: CCCCC/C=C\C/C=C\CCCCCCCC(=O)OC[C@@H](O)CO [1-Monolinolein, 1-monolinolein]
A. 82%

Q. Form entry - test system: PDBu receptor (phorboid receptor) of murine brain membranous fraction (BMF); read-out: Inhibition of binding of PDBu to its receptor; compound: CCCCC/C=C\C/C=C\CCCCCCCC(=O)O [Linoleic acid-Na, reference compound]
A. 10%

Measured values drawn from patent US5077312A for this set.
